Molecular target: APJ (Homo sapiens (Human))
Sequence (P35414 whole entry): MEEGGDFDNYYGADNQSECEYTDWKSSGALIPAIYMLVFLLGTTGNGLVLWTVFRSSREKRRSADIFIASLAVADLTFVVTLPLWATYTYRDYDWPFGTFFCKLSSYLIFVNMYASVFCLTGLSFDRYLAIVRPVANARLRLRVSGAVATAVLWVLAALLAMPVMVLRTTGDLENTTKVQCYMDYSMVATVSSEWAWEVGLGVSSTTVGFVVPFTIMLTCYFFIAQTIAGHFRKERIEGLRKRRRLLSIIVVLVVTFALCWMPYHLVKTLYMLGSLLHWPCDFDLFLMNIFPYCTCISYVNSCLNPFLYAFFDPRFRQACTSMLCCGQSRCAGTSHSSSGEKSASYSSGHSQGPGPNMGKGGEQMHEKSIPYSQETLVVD
Assay: [35S]GTPγS binding assay on membranes from CHO cells stably expressing human APJ receptor
Assay type: biochemical
Settings: Activity hAPJ SPA EC50 IP (μM)
Label label 1 when EC50 is strictly below 0.0005 µM; at or above that, label label 0.

Record excerpt, results attached:
[Q] Is EC50 strictly under 0.0005 µM for the entry COc1cccc(-c2nnc(NS(=O)(=O)[C@@H](C)[C@H](C)c3ncc(F)cn3)n2-c2cn(C)c3ccccc23)n1 (racemic) ?
[A] label 0

[Q] Is EC50 strictly under 0.0005 µM for the entry COc1ccnc(OC)c1-n1c(NS(=O)(=O)[C@@H](C)[C@H](OC)c2ccc(Cl)cn2)nnc1-c1cccnc1 (single isomer, unassigned) ?
[A] label 1

[Q] Is EC50 strictly under 0.0005 µM for the entry COc1cccc(OC)c1-n1c(NS(=O)(=O)[C@@H](C)[C@H](OC)c2ncnn2C)nnc1-c1cncc(C)c1 (single isomer, unassigned) [Example 782.0] ?
[A] label 0

[Q] Is EC50 strictly under 0.0005 µM for the entry COc1cccc(-c2nnc(NS(=O)(=O)[C@H](C)[C@H](OC(C)C)c3ncc(C)cn3)n2-c2c(OC)cccc2OC)n1 (single isomer, unassigned) ?
[A] label 0

[Q] Is EC50 strictly under 0.0005 µM for the entry COc1cccc(-c2nnc(NS(=O)(=O)[C@H](C)[C@@H](O)C3CC3)n2-c2c(OC)cccc2OC)n1 (mixture of isomers) ?
[A] label 0

[Q] Is EC50 strictly under 0.0005 µM for the entry COc1cccc(OC)c1-n1c(NS(=O)(=O)[C@@H](C)Cc2ncc(F)cn2)nnc1-c1cccc(C)n1 (single isomer, unassigned) ?
[A] label 0

[Q] Is EC50 strictly under 0.0005 µM for the entry COc1cccc(OC)c1-n1c(NS(=O)(=O)[C@@H](C)[C@H](OC)c2ncc(-c3ccccc3)cn2)nnc1-c1cncc(C)c1 ?
[A] label 0

[Q] Is EC50 strictly under 0.0005 µM for the entry COc1cccc(-c2nnc(NS(=O)(=O)[C@@H](C)[C@H](O)c3ccc(F)cc3)n2-c2c(OC)cccc2OC)n1 (mixture of isomers) ?
[A] label 0

[Q] Is EC50 strictly under 0.0005 µM for the entry COc1cccc(OC)c1-n1c(NS(=O)(=O)[C@@H](C)[C@H](C)c2ncc(C)cn2)nnc1-c1cncc(C2CC2)c1 ?
[A] label 0

[Q] Is EC50 strictly under 0.0005 µM for the entry COc1cnc([C@@H](C)[C@H](C)S(=O)(=O)Nc2nnc(-c3cccc(OC)n3)n2-c2c(F)cccc2F)cn1 ?
[A] label 0

***
[Q] Is EC50 strictly under 0.0005 µM for the entry COc1cccc(OC)c1-n1c(NS(=O)(=O)[C@@H](C)[C@H](C)c2ncc(F)cn2)nnc1-c1cccnc1 (single isomer, unassigned) ?
[A] label 0

[Q] Is EC50 strictly under 0.0005 µM for the entry COc1cccc(-c2nnc(NS(=O)(=O)C[C@H](OC)c3ccc(C#N)cc3S(C)(=O)=O)n2-c2c(OC)cccc2OC)n1 (mixture of isomers) ?
[A] label 1

[Q] Is EC50 strictly under 0.0005 µM for the entry CO[C@H](c1ncc(C)cn1)[C@H](C)S(=O)(=O)Nc1nnc(-c2cncc(C)c2)n1-c1c(C)cccc1C [Example 673.0, 2,2,2-trifluoroacetate] ?
[A] label 0

[Q] Is EC50 strictly under 0.0005 µM for the entry COc1cnc([C@@H](OC)[C@H](C)S(=O)(=O)Nc2nnc(-c3cncc(C)c3)n2-c2c(OC)cccc2OC)cn1 (single isomer, unassigned) ?
[A] label 0

[Q] Is EC50 strictly under 0.0005 µM for the entry COc1cccc(-c2nnc(NS(=O)(=O)[C@@H](C)[C@H](OC)c3ncc(C)cn3)n2-c2c(OC)ccnc2OC)n1 (single isomer, unassigned) ?
[A] label 0

[Q] Is EC50 strictly under 0.0005 µM for the entry COc1cccc(OC)c1-n1c(NS(=O)(=O)C[C@H](O)c2ccc(Cl)cc2S(C)(=O)=O)nnc1-c1cncc(C)c1 (mixture of isomers) ?
[A] label 1

[Q] Is EC50 strictly under 0.0005 µM for the entry COCCO[C@H](c1ncc(C)cn1)[C@H](C)S(=O)(=O)Nc1nnc(-c2cccc(OC)n2)n1-c1c(OC)cccc1OC ?
[A] label 1

[Q] Is EC50 strictly under 0.0005 µM for the entry COc1cccc(OC)c1-n1c(NS(=O)(=O)[C@H](C)[C@H](OC(C)C)c2cnc(C)cn2)nnc1-c1cccc(C)n1 (single isomer, unassigned) ?
[A] label 1

The origin of these recorded values is patent US9845310B2.
